Population Healthy Nuclei (%) values, listed per item
# Tested on: U2OS
# protocol-summary: Multiplex assay against U2OS
# Format: toxicity, cell-based
# condition-label: human, 12 h, 1 µM, compound concentration 1 uM, replicate 2
Write the value in % as a bare number.

Consider the following illustrative entries.
• CCOc1cc(N2CCC(O)CC2)ccc1Nc1ncc2c(n1)N(C1CCCC1)CCC(=O)N2C = 89
• Cl.Cl.Nc1ncnc2c1c(-c1cccc(OCc3ccccc3)c1)cn2[C@H]1C[C@@H](CN2CCC2)C1 = 67
• CCCn1c(=O)c2[nH]c(C34CC5CC(CC3C5)C4)nc2n(CCC)c1=O [ROLOFYLLINE] = 88
• COc1ccc(NS(=O)(=O)c2sc3ccc(Cl)cc3c2C)cc1N1CCNCC1.Cl = 69
• CC(C)N1CCC(C)(C)c2cc(C#Cc3ccc(C(=O)O)cc3)ccc21 = 75
• FC(F)c1nc2ccccc2n1-c1nc(N2CCOCC2)nc(N2CCOCC2)n1 [ZSTK-474] = 85
• O=C(O)c1ccc2cc(-c3ccc(O)c(C45CC6CC(CC(C6)C4)C5)c3)ccc2c1 [O-DEMETHYLATED ADAPALENE] = 87
• Nc1nc2c(c(N3CCNCC3)n1)CCC1=C2[C@@H]2CCCC[C@@H]2O1 = 61

Query block: For Cc1nc(Cc2cccc(C(F)(F)F)c2)sc1-c1ccc(C(N)=O)nc1 [TP-024n] , what is its reported Population Healthy Nuclei (%)?
Result block: 94

Query block: And for COc1cc2c(Nc3ccc(NC(=O)c4ccccc4)cc3)ncnc2cc1OCCCN1CCOCC1 ?
Result block: 74

Query block: Ok, now Cc1cc2c(cc1N1C(=O)c3cccc4c(CCCO)ccc(c34)C1=O)n(C)c(=O)n2C
Result block: 90

Query block: What do we get for CN(C)C/C=C/C(=O)Nc1cc2c(Nc3ccc(F)c(Cl)c3)ncnc2cc1O[C@H]1CCOC1.O=C(O)/C=C\C(=O)O.O=C(O)/C=C\C(=O)O [AFATINIB DIMALEATE] ?
Result block: 86

Query block: Repeat for the following compound: N#Cc1cnc(Nc2cc(NC[C@H]3CNCCO3)c(C(F)(F)F)cn2)cn1 [SRA-737]
Result block: 90

Query block: Same again, this time with CCOc1cc2ncc(C#N)c(Nc3ccc(OCc4cccc(F)c4)c(Cl)c3)c2cc1NC(=O)/C=C/CN(C)C [HKI-357]
Result block: 84

Query block: Try the compound CCC(=O)O[C@]1(C(=O)SCF)[C@H](C)C[C@H]2[C@@H]3C[C@H](F)C4=CC(=O)C=C[C@]4(C)[C@@]3(F)[C@@H](O)C[C@@]21C [FLUTICASONE PROPIONATE]
Result block: 78

Query block: Further, for Cc1cn(-c2cc(NC(=O)c3ccc4c(c3)CN(c3cncnc3)C[C@@H]4C)cc(C(F)(F)F)c2)cn1 ?
Result block: 86

Query block: Proceed to c1ccc2oc(-c3csc(C4CCN(Cc5nc6ncccc6[nH]5)CC4)n3)cc2c1
Result block: 85

Query block: Next record, please: CNC(=O)c1cc(Oc2ccc(NC(=O)Nc3cc(C(C)(C)C)nn3-c3ccc4ncccc4c3)c(F)c2)ccn1 [REBASTINIB]
Result block: 87

Query block: Same again, this time with CC(C)(C)c1cnc(CSc2cnc(NC(=O)C3CCNCC3)s2)o1 [BMS-387032]
Result block: 80

Query block: And what about the compound CN(C)CCOc1ccc(-c2nc(-c3ccncc3)c(-c3ccc4c(c3)CC/C4=N\O)[nH]2)cc1 [SB590885] ?
Result block: 34

###

# System: Fibroblast
# protocol-summary: Multiplex assay against human fibroblast
# Type: toxicity, cell-based
# condition-label: 12 h, 1 µM, compound concentration 1 uM, replicate 1
# Lookup of reported Population Normal (%) keyed by entry
Please respond with the number in % and leave the unit unwritten.

Some entries whose results are on file:
- CN(C)CCOc1ccc(-c2nc(-c3ccncc3)c(-c3ccc4c(c3)CC/C4=N\O)[nH]2)cc1 [SB590885]: 68
- Cc1cn(-c2cc(NC(=O)c3ccc4c(c3)CN(c3cncnc3)C[C@@H]4C)cc(C(F)(F)F)c2)cn1: 84
- COc1cc2c(Nc3ccc(NC(=O)c4ccccc4)cc3)ncnc2cc1OCCCN1CCOCC1: 64

Attention now turns to another entry.
Query block: Consider the molecule CNC(=O)c1cc(Oc2ccc(NC(=O)Nc3cc(C(C)(C)C)nn3-c3ccc4ncccc4c3)c(F)c2)ccn1 [REBASTINIB] and give its measured Population Normal (%).
Result block: 89

###

Growth Rate values by entry
# Tested on: U2OS
# protocol-summary: Incucyte cell viability with U2OS; note: filed as whole numbers so only -1 and 0 and 1 occur
# Assay type: toxicity, cell-based
# condition-label: human, 6 h, 10 µM, compound concentration 10 uM, replicate number 1, timepoint 6 hours
Lab note: record just the number, no unit beside it.

// below: answered molecules
* Nc1ccc(C(=O)Nc2cccc(-c3nc(N4CCOCC4)c4oc5ncccc5c4n3)c2)cn1 | 1
* CCc1cc2c(c(CC)n1)CCC(=O)N2Cc1ccc(-c2ccccc2-c2nnn[nH]2)cc1.Cl | 0
* CCCCc1nc(Cl)c(CO)n1Cc1ccc(-c2ccccc2-c2nn[nH]n2)cc1 | 0
* CCCOc1ccc([C@@H]2[C@@H](C(=O)O)[C@H](c3ccc4c(c3)OCO4)CN2CC(=O)Nc2c(CC)cccc2CC)cc1 | 1
* FC(F)c1nc2ccccc2n1-c1nc(N2CCOCC2)nc(N2CCOCC2)n1 | 1

Query block: Using the record for CN(C)C(=O)Cn1cc(-c2nc(C3(c4ccc(-c5cnc(N)nc5)cc4)CC3)no2)cn1 , report its Growth Rate.
Result block: 0

Query block: Field entry: CNc1nc(-c2ccc3c(N)n[nH]c3c2)cc(N2C[C@@H](C(=O)NC3CCCCC3)CC[C@H]2C)n1
Result block: 1

Query block: Ok, now Cc1cccc(NC(=O)N[C@@H]2N=C(c3ccccc3)c3ccccc3N(C)C2=O)c1
Result block: 0

###

# Test system: U2OS
# protocol-summary: Multiplex assay against U2OS
# Format: toxicity, cell-based
# condition-label: human, 48 h, 10 µM, compound concentration 10 uM, replicate 1
Classify by measured Total Cell Count: T if it is equal to or exceeds 200, F if it is smaller.

Observe how each entry below is paired with its result.
* Nc1nc2c(c(N3CCNCC3)n1)CCC1=C2[C@@H]2CCCC[C@@H]2O1 | F
* COc1ccc(NS(=O)(=O)c2sc3ccc(Cl)cc3c2C)cc1N1CCNCC1.Cl | T
* COc1cc2c(NC3CCN(C(C)C)CC3)nc(N3CCC(F)(F)CC3)nc2cc1OCCCN1CCCC1 | T
* CC(C)N1CCC(C)(C)c2cc(C#Cc3ccc(C(=O)O)cc3)ccc21 | T
* CC(C)Oc1ccc(C(=O)N[C@H](CNC(=O)CN(C)C)Cc2ccc(-c3cn4cccc([C@H](C)O)c4n3)cc2)cc1Cl [GSK-923295A] | F
* CCn1c(-c2nonc2N)nc2cnc(Oc3cccc(NC(=O)c4ccc(OCCN5CCOCC5)cc4)c3)cc21 [GSK-269962A] | F
* CCC(=O)O[C@]1(C(=O)SCF)[C@H](C)C[C@H]2[C@@H]3C[C@H](F)C4=CC(=O)C=C[C@]4(C)[C@@]3(F)[C@@H](O)C[C@@]21C [FLUTICASONE PROPIONATE] | T
* CNc1oc(-c2cccc3ccccc23)nc1C#N | T

Query block: hey, is Total Cell Count for this one >= 200? C1=N/C2=N/c3ccc(OCCN4CCCC4)c(c3)COC/C=C\COCc3cccc(c3)C(=C1)N2
Result block: F

###

Measured Population Hoechst High Intensity Objects (%) by item
# System: HEK-293T
# protocol-summary: Multiplex assay against HEK293T
# Assay type: toxicity, cell-based
# condition-label: human, 24 h, 1 µM, compound concentration 1 uM, replicate 1

Study these solved cases before continuing.
• CCc1cc2c(cc1CC)CC(NC[C@H](O)c1ccc(O)c3[nH]c(=O)ccc13)C2 [INDACATEROL] = 16%
• O=C(O)c1ccc2cc(-c3ccc(O)c(C45CC6CC(CC(C6)C4)C5)c3)ccc2c1 [O-DEMETHYLATED ADAPALENE] = 5%
• Cl.Cl.NC1(c2ccc(-c3nc4ccn5c(=O)[nH]nc5c4cc3-c3ccccc3)cc2)CCC1 = 17%
• CCn1c(-c2nonc2N)nc2cnc(Oc3cccc(NC(=O)c4ccc(OCCN5CCOCC5)cc4)c3)cc21 [GSK-269962A] = 16%
• N#Cc1cnc(Nc2cc(NC[C@H]3CNCCO3)c(C(F)(F)F)cn2)cn1 [SRA-737] = 7%

Query block: Population Hoechst High Intensity Objects (%) lookup needed for COc1cc(N2CCC(N(C)C)CC2)ccc1Nc1ncc(Cl)c(Nc2ccccc2P(C)(C)=O)n1 , thanks.
Result block: 9%

Query block: Note, next up: CCCn1c(=O)c2[nH]c(C34CC5CC(CC3C5)C4)nc2n(CCC)c1=O [ROLOFYLLINE]
Result block: 22%

Query block: Follow-up item: CC(C)Oc1ccc(C(=O)N[C@H](CNC(=O)CN(C)C)Cc2ccc(-c3cn4cccc([C@H](C)O)c4n3)cc2)cc1Cl [GSK-923295A]
Result block: 7%

Query block: Same question, CN(C)CCOc1ccc(-c2nc(-c3ccncc3)c(-c3ccc4c(c3)CC/C4=N\O)[nH]2)cc1 [SB590885] this time
Result block: 24%

Query block: And then Nc1nc2c(c(N3CCNCC3)n1)CCC1=C2[C@@H]2CCCC[C@@H]2O1 , what is it?
Result block: 10%

Query block: Subsequent entry: Nc1ccc(C(=O)Nc2cccc(-c3nc(N4CCOCC4)c4oc5ncccc5c4n3)c2)cn1
Result block: 19%

Query block: Would you kindly repeat that for CC(=O)c1cc(-c2cc(C(=O)NC3CC3)ccc2C)c2ncccn12 ?
Result block: 13%
